Tested on: HA-tagged PA of FluA
Details: read-out: IC50 (nM) PA (FluA)
Reported IC50 values for the following sequences.
Number only, in nM; omit the unit.

Example results:
MDVNPFLLFLKVPAQ [PB11-15 AT5F]	2.84
MDVNPWLLFLKVPAQ [PB11-15 AT6W]	3.4

[Q] Quick one: give measured IC50 for MDVNPYLLFLKVPAQ [PB11-15 AT5Y]
[A] 21.6

* * *

Molecular target: interaction between PB1 and PA (Influenza A virus, UniProt P03433)
Assay: biochemical
Assay type: binding
Conditions: prescreening
Metric: Active in ELISA

Below, each entry is followed by its recorded Active in ELISA result.
Cc1ccccc1Nc1ccc([N+](=O)[O-])c2nonc12	No
CC(C)(C)c1csc(-c2ccc3nonc3c2)n1	Yes
Cc1ccc(Nc2ccc([N+](=O)[O-])c3nonc23)cc1	No
O=[N+]([O-])c1ccc(N2CCN(Cc3ccccc3)CC2)c2c1no[n+]2[O-]	No
O=[N+]([O-])c1ccc(S(=O)(=O)Cc2ccccc2)c2nonc12	Yes
COc1ccc(S(=O)(=O)OCCSc2ccc([N+](=O)[O-])c3nonc23)cc1	Yes
O=[N+]([O-])c1ccc(Sc2ccc(Cl)cc2Cl)c2nonc12	Yes
O=[N+]([O-])c1ccc(Nc2ccc(F)cc2)c2nonc12	No

[Q] Report its Active in ELISA with interaction between PB1 and PA (Influenza A virus, UniProt P03433) as the test system: "Cc1cccc(Nc2ccc([N+](=O)[O-])c3nonc23)c1"
[A] No

[Q] Provide the reported Active in ELISA (system: interaction between PB1 and PA (Influenza A virus, UniProt P03433)) for "O=[N+]([O-])c1ccc(Nc2ccc(Cl)cc2)c2nonc12"
[A] No

[Q] Enter Active in ELISA (test system interaction between PB1 and PA (Influenza A virus, UniProt P03433)) for Nc1nc(Sc2ccc([N+](=O)[O-])c3nonc23)c2ncn(C3OC(CO)C(O)C3O)c2n1 (centres unmarked)
[A] Yes
